# credit: patent US8703791B2

Target Or Test System: human mu opioid receptor (Homo sapiens)
Sequence (P35372 whole entry): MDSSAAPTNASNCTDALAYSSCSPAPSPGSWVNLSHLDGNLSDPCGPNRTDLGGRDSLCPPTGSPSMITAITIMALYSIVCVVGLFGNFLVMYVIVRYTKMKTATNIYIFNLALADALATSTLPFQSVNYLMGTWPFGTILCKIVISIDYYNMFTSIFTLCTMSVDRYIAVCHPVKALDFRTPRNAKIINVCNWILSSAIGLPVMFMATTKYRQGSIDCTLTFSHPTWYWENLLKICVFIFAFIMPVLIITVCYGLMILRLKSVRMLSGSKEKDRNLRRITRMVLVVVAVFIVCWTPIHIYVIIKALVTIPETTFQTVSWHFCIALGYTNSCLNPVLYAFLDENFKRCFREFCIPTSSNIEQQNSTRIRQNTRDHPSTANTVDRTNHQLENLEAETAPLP
Protocol: Human mu [35S]GTPγS nucleotide exchange assay in membranes from CHO-K1 cells
Type: biochemical
Test Parameters: expressed as a percentage of activation by DAMGO; read-out: intrinsic activity (IA), bound [35S]GTPγS relative to DAMGO (IA=100)
Quantity Kind: Emax (%)

CCC1(CC)c2cc(C(N)=O)ccc2C[C@@H](OC)[C@@H]1NCC[C@@H](CC1CCCCC1)C(=O)OC [Example 5]
17

(a) CCC1(CC)c2cc(C(N)=O)ccc2CC(OC)[C@H]1NCC[C@@H](CC1CCCCC1)C(=O)OC (mixture of isomers) [Example 6]
(b) CCCCC[C@@H](CCN[C@@H]1[C@@H](OC)Cc2ccc(C(N)=O)cc2C1(CC)CC)C(=O)O [Example 9]
(c) CCC1(CC)c2cc(C(N)=O)ccc2C[C@H](OC)[C@H]1NCC[C@H](CC1CCCCC1)C(=O)OC [Example 2]
**Q:** Hi! Can you put these in order of Emax, lowest number first? State the ranking by listing the labels in the requested order.
**A:** c, b, a
(c: -5%, b: -2%, a: 19%)
